Reported protein stability index values are given for each entry in this list.
Test system: Saccharomyces cerevisiae
Assay Overview: protein stability index of tFT-peptide fusion (C-terminal peptide) (PSI (0-1 scale)); higher = more stable (slower turnover);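 also: PSI is a weighted mean of sequencing reads over stability bins, variants kept only with over 10 reads, mCherry proximal and sfGFP distal, peptide attached via GGGS linker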
Run Conditions: genetic background: das1 deletion; temperature: 37 C

Would you please look over these solved cases?
{"Sequence Input": "MVAHTVRVKCGI", "protein stability index": 0.674}
{"Sequence Input": "IQICLNRLRLFH", "protein stability index": 0.7}
{"Sequence Input": "QGPHISQYRTHR", "protein stability index": 0.745}

Consider the sequence `LRSLLIIYLLIF` . State its measured protein stability index.
0.404

Give the measured protein stability index for `PALLLFLRNLLL`
0.757

Kindly indicate its recorded protein stability index. Item: `YVVYLQVCWMRS`
0.23

Give recorded protein stability index. `LFFFLFSLLIFF`
0.362

Using the record for `WFVLYAEVMGFW` , state its measured protein stability index.
0.491

Query protein stability index for `WSWCLDVVCFTS`
0.563

Identify protein stability index associated with the sequence `FCICRFLFIFLG`
0.492

For the sequence `MYESIRILVNKV` , report protein stability index.
0.697

For the sequence `LGDPPCRMIVVR` , give its measured protein stability index value.
0.587

Determine its reported protein stability index: `ALVGEVLWFQLV`
0.749

Tell me protein stability index reported for `RLSTPFTVNHFI`
0.766

Output measured protein stability index for this item: `LLPTSVFLPSLF`
0.768

Give a short answer stating reported protein stability index for `DAGSSYRFFRFI` .
0.739

Identify protein stability index associated with the sequence `VLFFCLVIYVGV`
0.29

Give the value of protein stability index reported for the following: `WLWFVGCLAAPL`
0.632

Give the reported protein stability index for this sequence. `GTVRSLLKWRCS`
0.743

For the sequence `LVSCGNFLVFCF` , give its measured protein stability index value.
0.387

Provide measured protein stability index value, entry: `VECVCVVVVRRM`
0.493

Check the records and state protein stability index for `CVCPFCVWVSCL`
0.752

For the sequence `KLKDLTRIKIFR` , give its reported protein stability index.
0.699

Specify protein stability index for `LVVYLSCVACIN` and stop.
0.0456

Quick one: give measured protein stability index for `CSRVVGLFFLVV`
0.649

Return protein stability index for the following sequence: `CGGVQVWRVKVV`
0.722

* * *

System: Saccharomyces cerevisiae
Assay Overview: protein stability index of tFT-peptide fusion (C-terminal peptide) (PSI (0-1 scale)); higher = more stable (slower turnover)
Run Conditions: genetic background: wild type; temperature: 30 C
Mark yes for reported protein stability index of 0.7 or greater; mark no for anything smaller.

// below: answered sequences
{"Sequence Input": "RVLCLVSSLTLF", "Class Label": "no"}
{"Sequence Input": "EQFQLCAREVAK", "Class Label": "yes"}
{"Sequence Input": "LPVCVRLSLCDV", "Class Label": "no"}

Test whether the sequence `LITGRGFGFVVV` records protein stability index of 0.7 or higher.
no

Please tell me: is the sequence `SLVPSIFLFRIF` at or over 0.7 in terms of protein stability index?
no

Is protein stability index at least 0.7? Consider `SFLRVRSLISCS`
no

Confirm if protein stability index reported for the sequence `VYTVGFVCWLVY` is 0.7 or above.
no

Please indicate if the recorded protein stability index for `STCPPIFFVSSW` meets or exceeds 0.7.
yes

Test whether the sequence `DARALMGEGGSV` records protein stability index of 0.7 or higher.
no
